# target_or_test_system: UniProtKB P28335
# Sequence (P28335 whole entry): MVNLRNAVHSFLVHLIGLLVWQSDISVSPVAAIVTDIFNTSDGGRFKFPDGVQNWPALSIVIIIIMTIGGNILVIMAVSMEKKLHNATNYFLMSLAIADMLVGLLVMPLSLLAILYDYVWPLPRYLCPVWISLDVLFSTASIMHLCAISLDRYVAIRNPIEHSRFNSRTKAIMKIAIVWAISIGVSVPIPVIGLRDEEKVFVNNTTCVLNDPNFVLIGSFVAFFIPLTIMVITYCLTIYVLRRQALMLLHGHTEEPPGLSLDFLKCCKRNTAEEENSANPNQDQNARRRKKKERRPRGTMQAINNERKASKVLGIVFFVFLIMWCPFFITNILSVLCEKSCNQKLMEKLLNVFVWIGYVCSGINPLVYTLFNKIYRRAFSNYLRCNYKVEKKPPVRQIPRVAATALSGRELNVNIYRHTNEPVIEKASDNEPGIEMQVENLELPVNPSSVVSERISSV
pKi: −log10 of the molar value.
Note to self: these compounds have pKi reported for UniProtKB P28335 in various publications.
result_type: pKi

# compound, relation_qualifier, reading
measured = [
    ("CCn1cc(Cl)c(C(=O)N2CCN(CC(=O)c3ccc(F)cc3)CC2)n1", "<", 5.00),
    ("COc1cccc(N2CCN(CCCCNC(=O)c3ccccc3)CC2)n1", "<", 6.00),
    ("COc1ccc2c(c1)CC(CN1CCN(c3ccccn3)CC1)CC2=O (racemic)", "=", 5.34),
    ("Cc1c(Cl)cc2c(c1Cl)CCN2C(=O)Nc1cccnc1", "=", 8.40),
    ("COc1cc(OC)c(C(=O)CCCCN2CCC3(CC2)NC(=O)NC3=O)cc1NS(=O)(=O)c1cccc(Cl)c1", "=", 7.30),
    ("CNCC1C[C@@H]2c3ccccc3Cc3ccccc3[C@H]2O1 (some centres not stated)", "=", 8.01),
    ("c1ccc(-c2[nH]c3ccccc3c2C2CCCNC2)cc1 (configuration not stated)", "=", 7.05),
    ("Nc1cc(F)ccc1C(=O)CCCN1CC[C@@H]2[C@H](C1)c1cccc3c1N2CCC3", "=", 7.15),
    ("COc1cccc(N2CCN(CCCCNC(=O)c3cc4ccccc4n3C)CC2)c1", "=", 6.51),
    ("COc1cc(N2CC(=O)N(c3ccc(Oc4ccccc4)cc3)C2=O)ccc1OCCN1CCCC1", "=", 6.06),
    ("CC(C)n1nc2c(c1-c1ccc(C#N)cc1)CCNCC2", "=", 6.41),
    ("COc1ccc(N2CCC(c3ccc(Cl)c(Cl)c3)C2=O)cc1OCCN1CCCCC1 (configuration not stated)", "=", 7.90),
    ("CSc1cc2c(cc1Cl)N(C(=O)Nc1cccnc1)CC2", "=", 8.20),
    ("C[C@@H](Cn1ccc2ccc3ncccc3c21)NCc1ccc2ccccc2c1", "=", 7.80),
    ("CN1CCCCC1c1c(-c2ccccc2)[nH]c2ccccc12 (configuration not stated)", "=", 5.70),
    ("CN(C)C[C@@H]1CC2c3ccccc3Oc3ccc(Br)cc3[C@H]2O1 (some centres not stated)", "=", 7.77),
    ("CCc1ccc(N2CCN(Cc3c[nH]c4ncccc34)CC2)cc1", "<", 5.00),
    ("COc1cccc2[nH]cc(-c3ccnc(N)n3)c12", "<", 5.00),
    ("CNc1ncc2c(n1)CC(CN1CCC(c3noc4cc(F)ccc34)CC1)CC2=O (configuration not stated)", "<", 5.00),
    ("[O-][S+](c1ccccc1)c1ccc(/C=C/c2ccc(F)cc2F)nc1 (single isomer, unassigned; form 1)", "=", 5.62),
    ("O=C(CCCN1CC[C@H]2[C@@H](C1)c1cccc3c1N2CCS3)c1ccc(F)cc1", "=", 6.82),
    ("O=C(/C=C/c1ccccc1)N(Cc1ccc(-c2ccc(CNCCc3ccccc3)cc2)cc1)Cc1cccnc1", "=", 6.00),
    ("COc1ccc(C2=CCN(c3cccc(F)c3)C2=O)cc1OCCN1CCCCC1", "=", 8.20),
    ("CN1CCc2c(c3cccc4c3n2CCc2ccccc2-4)C1", "<", 5.00),
    ("O=C(Nc1ccccc1)c1[nH]c2cc(F)ccc2c1[C@@H]1CNCC[C@H]1F", "=", 7.32),
    ("Cc1ccc2c(OCCN3CCC(Cc4cc5c(cc4F)OCC(=O)N5)CC3)cc(Cl)cc2n1", "<", 5.30),
    ("C=Cc1cc(CCNC(C)=O)c2cc(OC)ccc2c1", "=", 6.00),
    ("Cc1cc2c(cc1Cl)N(C(=O)Nc1ccc(Oc3cccnc3C(C)C)nc1)CC2", "=", 6.90),
    ("Cc1ncccc1Oc1ccc(NC(=O)N2CCc3c2cc(C(F)(F)F)c2c3CCO2)cn1", "=", 8.90),
    ("Cl.O=C(Nc1ccc2[nH]nc(S(=O)(=O)c3cccc4ccccc34)c2c1)C1CCNCC1", "<", 5.30),
    ("O=C(c1ccc(F)cc1)C1CCN(CCC2CCc3occc3C2=O)CC1 (configuration not stated)", "=", 6.47),
    ("CCN/C(=N\\S(=O)(=O)c1cccc(Cl)c1)N1CC(CC)C=N1 (racemic)", "<", 6.00),
]
